Kindly state kinase still bound, per cent of control for each of the entries shown.
assayed-system: CDK2 (human)
protocol: KINOMEscan competition binding
condition-summary: compound 10.0 µM
Provide the reading as a plain figure in %.

The molecule listed as `C=CC(=O)Nc1ccc(CN(C(=O)Nc2c(Cl)c(OC)cc(OC)c2Cl)c2cc(Nc3ccc(N4CCN(C)CC4)cc3)ncn2)cc1` has a reported kinase still bound, per cent of control of 100

The measured kinase still bound, per cent of control associated with `COc1cc(C(=O)N2CCC(N3CCN(C)CC3)CC2)ccc1Nc1ncc2c(n1)N(C)c1ccccc1C(=O)N2C` reads 100

Lab note: `COc1cc2ncnc(-n3nc(-c4ccccn4)nc3N)c2cc1OC` gave kinase still bound, per cent of control of 50

Entry `COc1cc2ncn(-c3cc(OCc4ccccc4C(F)(F)F)c(C(N)=O)s3)c2cc1OC` ; kinase still bound, per cent of control = 73

Recorded result, `CS(=O)(=O)N1CCN(Cc2cc3nc(-c4cccc5[nH]ncc45)nc(N4CCOCC4)c3s2)CC1` , kinase still bound, per cent of control: 100

# kinase still bound, per cent of control of `C=CC(=O)Nc1cc(-n2c(=O)ccc3cnc4ccc(-c5cn[nH]c5)cc4c32)ccc1C` = 84

According to the records, this molecule `Cc1n[nH]c2ccc(-c3cncc(OC[C@@H](N)Cc4c[nH]c5ccccc45)c3)cc12` displays kinase still bound, per cent of control of 100

# kinase still bound, per cent of control of `CCN(CC)CCCCNc1ncc2c(n1)N(C)C(=O)N(c1c(Cl)c(OC)cc(OC)c1Cl)C2` = 100

Reported kinase still bound, per cent of control for `CCN(CC)CCCCNc1ncc2cc(-c3cc(OC)cc(OC)c3)c(NC(=O)NC(C)(C)C)nc2n1` was 100

Per the record, `COc1ccc(N(C(=O)Oc2c(C)cccc2C)c2ccnc(Nc3ccc(N4CCN(C)CC4)cc3)n2)c(OC)c1` has kinase still bound, per cent of control of 65

molecule `COc1cc(N2CCN(C)CC2)ccc1Nc1ncc2c(n1)N(C)c1ccccc1C(=O)N2C` , kinase still bound, per cent of control observed: 100

Noted for `COCC(=O)NC/C=C/c1ccc2ncnc(Nc3ccc(Oc4ccc(C)nc4)c(C)c3)c2c1` : its kinase still bound, per cent of control reads 92

In plain terms, `NC(=O)Nc1cc(-c2cccc(F)c2)sc1C(=O)N[C@@H]1CCCNC1` has a documented kinase still bound, per cent of control of 93

kinase still bound, per cent of control reported for this molecule `CN(C)C/C=C/C(=O)Nc1ccc(C(=O)Nc2cccc(Nc3nccc(-c4cccnc4)n3)c2)cc1` : 100

Lab note: measured kinase still bound, per cent of control of `O=C1NC(=O)/C(=C/c2ccc3nccc(-c4ccncc4)c3c2)S1` was 76

The molecule listed as `CNC(=O)c1ccc(Nc2cc(Nc3ccccc3S(=O)(=O)C(C)C)c3cc[nH]c3n2)nc1` has a reported kinase still bound, per cent of control of 100

// kinase still bound, per cent of control value for `N#CCNC(=O)c1ccc(-c2ccnc(Nc3ccc(N4CCOCC4)cc3)n2)cc1` : 55

Documented kinase still bound, per cent of control of `CNC(=O)c1cc(Oc2ccc(NC(=O)Nc3ccc(Cl)c(C(F)(F)F)c3)cc2)ccn1` : 33

Value of kinase still bound, per cent of control reported for the molecule `O=c1cc(N2CCOCC2)oc2c(-c3cccc4c3sc3ccccc34)cccc12` is 75
